- System: KK-Ay mice
- Assay: Weight gain-inhibiting action, hypoglycemic effect, insulin in blood plasma lowering action in KK-Ay mice
- Format: in vivo
- Conditions: Mus musculus, 336 h; male KK-Ay mice, high fat diet, 30 mg/kg/day oral, 2 weeks; read-out: Weight gain-inhibiting action (30 mg/kg/day)
Reported inhibition in vivo at 30 mg/kg values for the following compounds.
// return numeric value only (unit: %, not printed)

Example entries begin here.
1. O=C(O)C1(COc2ccc(-c3ccc(-c4ncc(C(F)(F)F)[nH]4)cn3)cc2)CCC1 | 17
2. CC(C)(COc1ccc(-c2cnc(-c3ncc(C(F)(F)F)[nH]3)cn2)cc1)C(=O)O | 66
3. Cc1cc(OCC(C)(C)C(=O)O)ncc1-c1ccc(-c2ncc(CC(C)C)[nH]2)c(F)c1 | 36
4. CC(C)(COc1ncc(-c2ccc(-c3ncc(C(F)(F)F)[nH]3)c(F)c2)cc1F)C(=O)O | 48
5. Cc1cc(OCC(C)(C)C(=O)O)ncc1-c1ccc(-c2ncc(C(F)(F)F)[nH]2)cc1 | 62
6. Cc1cc(OCC(C)(C)C(=O)O)ncc1-c1cnc(-c2ncc(C(F)(F)F)[nH]2)c(Cl)c1 | 47
7. Cc1cc(OCC(C)(C)C(=O)O)ncc1-c1ccc(-c2ncc(C3(C(F)(F)F)CC3)[nH]2)nc1 | 59

Below: the item to evaluate.
inhibition in vivo at 30 mg/kg in this record for Cc1cc(-c2ccc(OCC(C)(C)C(=O)O)cc2)ncc1-c1ncc(C(F)(F)F)[nH]1 : 48

---

- System: KK-Ay mice
- Assay: Weight gain-inhibiting action, hypoglycemic effect, insulin in blood plasma lowering action in KK-Ay mice
- Assay type: in vivo
- Conditions: Mus musculus, 336 h; male KK-Ay mice, high fat diet, 30 mg/kg/day oral, 2 weeks; read-out: Weight gain-inhibiting action (30 mg/kg/day)
Measurement Label: inhibition in vivo at 30 mg/kg (%)
// return numeric value only (unit: %, not printed)

Example entries begin here.
1) Cc1cc(OCC(C)(C)C(=O)O)ncc1-c1ccc(-c2ncc(CC(C)C)[nH]2)nc1 | 31
2) CC(C)(COc1cnc(-c2ccc(-c3ncc(C(F)(F)F)[nH]3)nc2)cn1)C(=O)O | 60
3) Cc1cc(OCC(C)(C)C(=O)O)ncc1-c1cnc(-c2ncc(C(F)(F)F)[nH]2)c(F)c1 | 48
4) CC(C)(COc1ccc(-c2ccc(-c3ncc(C4(C(F)(F)F)CC4)[nH]3)c(F)c2)cn1)C(=O)O | 42
5) Cc1cc(OCC(C)(C)C(=O)O)ncc1-c1ccc(-c2ncc(C(F)(F)F)[nH]2)c(Cl)c1 | 115

inhibition in vivo at 30 mg/kg in this record for Cc1cc(OCC(C)(C)C(=O)O)ncc1-c1ccc(-c2ncc(CC3CC3)[nH]2)c(F)c1 : 75

inhibition in vivo at 30 mg/kg in this record for CC(C)(COc1ccc(-c2ccc(-c3ncc(C(F)(F)F)[nH]3)c(F)c2)cn1)C(=O)O : 69

inhibition in vivo at 30 mg/kg in this record for CC(C)(COc1ccc(-c2ccc(-c3ncc(C(F)(F)F)[nH]3)nc2)cn1)C(=O)O : 46

inhibition in vivo at 30 mg/kg in this record for Cc1cc(OCC(C)(C)C(=O)O)ncc1-c1ccc(-c2ncc(C(F)(F)F)[nH]2)c(F)c1 : 161

inhibition in vivo at 30 mg/kg in this record for CC(C)(COc1ccc(-c2ccc(-c3ncc(C(F)(F)F)[nH]3)cc2)cn1)C(=O)O : 52

inhibition in vivo at 30 mg/kg in this record for CCC(CC)(COc1ccc(-c2ccc(-c3ncc(C(F)(F)F)[nH]3)cn2)cn1)C(=O)O : 30

inhibition in vivo at 30 mg/kg in this record for CC(C)(COc1ccc(-c2ccc(-c3ncc(C(C)(C)C(F)(F)F)[nH]3)cn2)cc1)C(=O)O : 53

inhibition in vivo at 30 mg/kg in this record for Cc1cc(OCC(C)(C)C(=O)O)ncc1-c1ccc(-c2ncc(C3(C(F)(F)F)CC3)[nH]2)cc1 : 38

inhibition in vivo at 30 mg/kg in this record for Cc1nc(OCC(C)(C)C(=O)O)ccc1-c1ccc(-c2ncc(C(F)(F)F)[nH]2)cc1 : 47

inhibition in vivo at 30 mg/kg in this record for Cc1cc(OCC(C)(C)C(=O)O)ncc1-c1cnc(-c2ncc(C(F)(F)F)[nH]2)c(C)c1 : 45

inhibition in vivo at 30 mg/kg in this record for CCC(CC)(COc1ccc(-c2ccc(-c3ncc(C(F)(F)F)[nH]3)nc2)cn1)C(=O)O : 39

---

Reported inhibition in vivo at 5 mg/kg values for the following compounds.
- Test system: C57BL/6J mice
- Assay: Antifeeding activity (high fat diet intake up to 4 hours)
- Type: in vivo
- Conditions: Mus musculus, male C57BL/6J mice, 5 mg/kg oral, food ingested up to 4 hours, read-out: Antifeeding rate (5 mg/kg)
// return numeric value only (unit: %, not printed)

1. Cc1cc(OCC(C)(C)C(=O)O)ncc1-c1ccc(-c2ncc(C3(C(F)(F)F)CC3)[nH]2)nc1 [Example 36] | 63
2. O=C(O)C1(COc2ccc(-c3ccc(-c4ncc(C(F)(F)F)[nH]4)cn3)cc2)CC1 [Example 60-3)] | 59
3. CC(C)c1cnc(-c2ccc(-c3ccc(OCC(C)(C)C(=O)O)cc3)nc2)[nH]1 [Example 28] | 54

Below: the item to evaluate.
inhibition in vivo at 5 mg/kg in this record for CC(C)(COc1ncc(-c2ccc(-c3ncc(C(F)(F)F)[nH]3)cc2)cc1F)C(=O)O [Example 90] : 75

---

- Test system: C57BL/6J mice
- Assay: Antifeeding activity (high fat diet intake up to 4 hours)
- Type: in vivo
- Conditions: Mus musculus, male C57BL/6J mice, 5 mg/kg oral, food ingested up to 4 hours, read-out: Antifeeding rate (5 mg/kg)
Answer Condition not met if inhibition in vivo at 5 mg/kg is under 70%, and Condition met if it is 70% or more.

Past entries and their recorded results:
1) Cc1cc(OCC(C)(C)C(=O)O)ncc1-c1ccc(-c2ncc(CC3CC3)[nH]2)c(C)c1 | Condition not met
2) Cc1cc(-c2ccc(OCC(C)(C)C(=O)O)cc2)ncc1-c1ncc(C(F)(F)F)[nH]1 | Condition not met
3) Cc1cc(OCC(C)(C)C(=O)O)ncc1-c1ccc(-c2ncc(C3(C(F)(F)F)CC3)[nH]2)cc1 | Condition met
4) CC(C)(COc1ccc(-c2ccc(-c3ncc(CC(F)F)[nH]3)cn2)cc1)C(=O)O | Condition not met
5) CC(C)(CCOc1ccc(-c2ccc(-c3ncc(C(F)(F)F)[nH]3)cn2)cc1)C(=O)O | Condition met

// next entry
Query string: Exam item: decide whether the reported inhibition in vivo at 5 mg/kg for Cc1cc(OCC2(C(=O)O)CCC2)ncc1-c1ccc(-c2ncc(C(F)(F)F)[nH]2)c(Cl)c1 is at least 70%.
Result string: Condition not met

---

Reported inhibition in vivo at 5 mg/kg values for the following compounds.
- Test system: C57BL/6J mice
- Assay: Antifeeding activity (high fat diet intake up to 4 hours)
- Type: in vivo
- Conditions: Mus musculus, male C57BL/6J mice, 5 mg/kg oral, food ingested up to 4 hours, read-out: Antifeeding rate (5 mg/kg)
// return numeric value only (unit: %, not printed)

1) CCc1cnc(-c2ccc(-c3ccc(OCC(C)(C)C(=O)O)cc3)nc2)[nH]1 [Example 58-2)] | 65

inhibition in vivo at 5 mg/kg in this record for CC(C)(COc1cnc(-c2ccc(-c3ncc(C(F)(F)F)[nH]3)c(F)c2)cn1)C(=O)O [Example 91] : 51

inhibition in vivo at 5 mg/kg in this record for Cc1cc(OCC(C)(C)C(=O)O)ncc1-c1ccc(-c2ncc(C(F)(F)F)[nH]2)cc1 [Example 73] : 82

inhibition in vivo at 5 mg/kg in this record for O=C(O)C1(COc2ccc(-c3ccc(-c4ncc(C(F)(F)F)[nH]4)nc3)cn2)CCCC1 [Example 16] : 75

---

- Test system: C57BL/6J mice
- Assay: Antifeeding activity (high fat diet intake up to 4 hours)
- Format: in vivo
- Conditions: Mus musculus, male C57BL/6J mice, 5 mg/kg oral, food ingested up to 4 hours, read-out: Antifeeding rate (5 mg/kg)
Reported inhibition in vivo at 5 mg/kg values for the following compounds.
Report field: quantity (unit follows the number).

1) CC(C)(COc1ncc(-c2ccc(-c3ncc(C(F)(F)F)[nH]3)c(F)c2)cc1F)C(=O)O | 64%
2) CC(C)(COc1ccc(-c2ccc(-c3ncc(C4CC(F)(F)C4)[nH]3)cn2)cc1)C(=O)O | 44%
3) Cc1cc(OCC(C)(C)C(=O)O)ncc1-c1ccc(-c2ncc(CC3CC3)[nH]2)nc1 | 61%
4) CC(C)(COc1ccc(-c2ccc(-c3nc(C(F)(F)F)c[nH]3)cc2)cc1)C(=O)O | 68%
5) CC(C)(COc1ccc(-c2ccc(-c3ncc(C4CCC4)[nH]3)cn2)cc1)C(=O)O | 39%
6) Cc1cc(-c2ccc(-c3ncc(C(F)(F)F)[nH]3)cn2)ccc1OCC(C)(C)C(=O)O | 57%
7) CC(C)(COc1ccc(-c2ccc(-c3ncc(C(F)(F)F)[nH]3)nn2)cc1)C(=O)O | 59%

Below: the item to evaluate.
inhibition in vivo at 5 mg/kg in this record for CCc1cc(OCC(C)(C)C(=O)O)ccc1-c1ccc(-c2ncc(C(F)(F)F)[nH]2)cn1 : 70%
